Tested on: Hepatitis B virus
Assay: Antiviral activity against Hepatitis B virus infected in human HepG2(2.2.15) cells assessed as inhibition of viral DNA replication after 4 days by RT-PCR analysis
Assay type: functional, organism-based
Settings: HepG2 2.2.15, 96 h
pIC50: −log10 of the molar value.
METRIC: pIC50

# example entries with known answers
>  <MOLECULAR_STRING>
CCN(CCc1c[nH]c2ccccc12)CCC(C)C

>  <pIC50>
< 4.60

$$$$
>  <MOLECULAR_STRING>
CC(C)CCN(C)CCc1c[nH]c2ccccc12

>  <pIC50>
< 4.60

$$$$

Go through the items and report each one's pIC50.
1. CC(C)CCNCCc1c[nH]c2ccccc12
2. [O-][N+](CCc1c[nH]c2ccccc12)(Cc1ccccc1)Cc1ccccc1
3. c1ccc(CN(CCc2c[nH]c3ccccc23)Cc2ccccn2)nc1
4. CCCN(CCC)CCc1c[nH]c2ccccc12

1: < 4.60; 2: < 4.00; 3: < 4.60; 4: < 4.00

---

Tested on: Hepatitis B virus
Assay: Antiviral activity against Hepatitis B virus infected in human HepG2(2.2.15) cells assessed as inhibition of viral DNA replication after 4 days by RT-PCR analysis
Type: functional, organism-based
Conditions: HepG2 2.2.15, 96 h
Assign pIC50 to each entry below.
One number for each entry, as −log10 of the molar value.

>  <COMPOUND>
CC(C)CCN(CCc1c[nH]c2ccccc12)Cc1ccco1

>  <pIC50>
5.28

$$$$

Please go through the list and note pIC50 for each compound.
1. Nc1ccn([C@@H]2CS[C@H](CO)O2)c(=O)n1 [LAMIVUDINE]
2. c1ccc2c(CCN(CC3CC3)CC3CC3)c[nH]c2c1
3. C[N+](C)([O-])CCc1c[nH]c2ccc(Br)cc12

[6.48, 5.22, 5.27]

---

Test system: Hepatitis B virus
Test: Antiviral activity against Hepatitis B virus infected in human HepG2(2.2.15) cells assessed as inhibition of viral DNA replication after 4 days by RT-PCR analysis
Type: functional, organism-based
Conditions: HepG2 2.2.15, 96 h
Would you mind telling me the reported IC50 of each entry?

>  <MOLECULAR_STRING>
c1ccc2c(CCN(CC3CCCCC3)CC3CCCCC3)c[nH]c2c1

>  <RESULT>
> 100 µM

$$$$

# batch: return IC50 for each of the 2 compounds below
1. CCC[N+]([O-])(CCC)CCc1c[nH]c2ccccc12
2. [O-][N+](CCc1c[nH]c2ccccc12)(Cc1cccs1)Cc1cccs1

1: > 100 µM; 2: 9.4 µM

---

System: Hepatitis B virus
Test: Antiviral activity against Hepatitis B virus infected in human HepG2(2.2.15) cells assessed as inhibition of viral DNA replication after 4 days by RT-PCR analysis
Assay type: functional, organism-based
Conditions: HepG2 2.2.15, 96 h
METRIC: IC50

>  <MOLECULAR_STRING>
CN(C)CCc1c[nH]c2ccccc12

>  <METRIC>
IC50

>  <RESULT>
> 100 µM

$$$$
>  <MOLECULAR_STRING>
C[N+](C)([O-])CCc1c[nH]c2ccc(O)cc12

>  <METRIC>
IC50

>  <RESULT>
< 1 µM

$$$$

Consider now this further compound.
Under Hepatitis B virus, report IC50 for O=[N+]([O-])c1cccc(CN(CCc2c[nH]c3ccccc23)Cc2cccc([N+](=O)[O-])c2)c1
> 100 µM
